Below, Ki values reported for Adenosine receptor A2a (Homo sapiens) across several publications.
Entry class follows Ki: bottom end (below 60 nM), midrange (60 nM to below 2000 nM), top end (2000 nM or more)

Ask | Lab note: which band did `Cc1ccc(-c2nc(N)nc3c2cnn3Cc2cccc(/C=C/C(=O)Nc3ccccc3N)c2)o1` land in?
Reply | bottom end

Ask | For `Cn1c(=O)c2c(cc(C#CCc3ccccc3)n2C)n(C)c1=O` then?
Reply | top end

Ask | # repeat for `O=C(O)[C@H]1CC[C@H](OC2CCN(c3ccc(-c4nc5cc(Cl)ccc5[nH]4)cn3)CC2)CC1`
Reply | top end

Ask | Now this one: `Nc1nc(-c2sc(NC(=O)c3ccccc3)nc2-c2ccccc2)nc2sc3c(c12)CCCC3`
Reply | top end

Ask | Next: `Nc1nn(-c2ccccc2Cl)nc1C(=O)CCc1ccccc1`
Reply | midrange

Ask | Also `CCN(C(C)=O)c1ccc(OC)c2nc(NC(=O)[C@H]3CC[C@H](NC(=O)c4cccc(C(F)(F)F)c4)CC3)sc12` ?
Reply | midrange

Ask | Try `CCCn1c(=O)c2[nH]c(C34CCC(CCC(=O)O)(CC3)CC4)nc2n(CCC)c1=O` next.
Reply | top end

Ask | What do you get for `CCN(C(C)=O)c1ccc(OC)c2nc(NC(=O)N3CCC(c4cccc(C(F)(F)F)c4)CC3)sc12` ?
Reply | midrange

Ask | Can you handle CNc1nc(-n2cc(-c3ccncc3)cn2)nc2c1ncn2C1O[C@H](CO)[C@@H](O)[C@H]1O (stereo partly specified) next?
Reply | top end

Ask | What do you get for `Nc1nc2c(cnn2CCCc2ccc3c(c2)OCO3)c2nc(-c3ccco3)nn12` ?
Reply | bottom end

Ask | Now consider `CN1CCN(c2nc3nn(C)cc3c3nc(-c4ccco4)nn23)CC1` .
Reply | top end

Ask | Next molecule up: `Cn1c(=O)c2[nH]c(-c3ccc(OC(C)(C)C(=O)N4CCN(c5nc6cc(Cl)ccc6s5)CC4)cc3)cc2n(C)c1=O`
Reply | top end

Ask | Same question, `CCCCC#Cc1nc(NC2CC2)c2ncn([C@H]3[C@H](O)[C@H](O)[C@@H]4C[C@@H]43)c2n1` this time
Reply | top end

Ask | Then this molecule: `COc1ccc(C(=O)Nc2ncnc3nn(Cc4ccccc4)cc23)cc1`
Reply | top end

Ask | Ok, now `Cc1ccc2c(O)ccnc2n1`
Reply | midrange

Ask | Next up: `COc1cncc(-c2cc(NC(C)=O)nc(-n3nc(C)cc3C)n2)c1`
Reply | bottom end

Ask | Queued: CNC(=O)C12C[C@@H]1[C@@H](n1cnc3c(NCc4cc(OC)ccc4OC)nc(Cl)nc31)[C@H](O)[C@@H]2O (single isomer, unassigned)
Reply | top end

Ask | Same again, this time with `Nc1nc(N2CCC(CNC(=O)CCN3C(=O)c4ccccc4S3(=O)=O)CC2)nc2sc(-c3ccco3)nc12`
Reply | midrange

Ask | Next record, please: `CCOc1ccc2c(=O)cc(-c3ccccc3)n(CC)c2n1`
Reply | midrange

Ask | Next: `Nc1ncnc2nc(Br)[nH]c12`
Reply | top end

Ask | Again, but for `CCn1cc2c(nc(N)n3nc(-c4ccc(Cl)cc4)nc23)n1`
Reply | midrange

Ask | Queued: `CNC(=O)[C@@]12C[C@@H]1[C@@H](n1cnc3c(NC4CCC4)nc(I)nc31)[C@H](O)[C@@H]2O`
Reply | top end

Ask | Then `Cc1ccccc1NC(=O)CSCc1nc(N)nc(Nc2ccccc2C)n1` ?
Reply | top end

Ask | Now consider CC(=O)Nc1cc(-c2cccc(OC3CCN(C(C)C)C3)c2)nc(-n2nc(C)cc2C)n1 (stereo unspecified) and answer again.
Reply | bottom end

Ask | Let us now turn to `COC[C@H]1CCCN1c1cc(NC(=O)CC(C)C)nc(-n2nc(C)cc2C)n1`
Reply | bottom end
